For each record, write down the corresponding GI50.
test system: COLO 205; test: NCI tumour cell line growth inhibition, 48 h
Calls of active or inactive are those of the source. Cut-off read from the data, not from the text of the source: active = GI50 up to about 1.1 µM and inactive = higher.

O=C1O[C@H](c2ccc3c(c2)OCO3)[C@H]2CO[C@@H](c3ccc4c(c3)OCO4)[C@@H]12	85.5 µM (inactive)
CCOC(=O)c1cc([N+](=O)[O-])c(Sc2ncnc3nc[nH]c23)c([N+](=O)[O-])c1	1.66 µM (inactive)
Clc1ccc(CCn2cncn2)cc1	> 100 µM (inactive)
Cc1cc(C)nc(NS(=O)(=O)c2ccc(NC(=O)c3cccc4c(Nc5ccc(S(=O)(=O)Nc6nc(C)cc(C)n6)cc5)c5ccc(Cl)cc5nc34)cc2)n1	33.8 µM (inactive)

Shift focus to the following entry.
Reported GI50, compound `[N-]=[N+]=N[C@H]1C[C@@H](CO)O[C@H]1n1cnc2c(N)ncnc21` : ____ > 100 µM (inactive)
